Target: PRMT5:MEP50 (Homo sapiens)
Sequence (O14744 whole entry): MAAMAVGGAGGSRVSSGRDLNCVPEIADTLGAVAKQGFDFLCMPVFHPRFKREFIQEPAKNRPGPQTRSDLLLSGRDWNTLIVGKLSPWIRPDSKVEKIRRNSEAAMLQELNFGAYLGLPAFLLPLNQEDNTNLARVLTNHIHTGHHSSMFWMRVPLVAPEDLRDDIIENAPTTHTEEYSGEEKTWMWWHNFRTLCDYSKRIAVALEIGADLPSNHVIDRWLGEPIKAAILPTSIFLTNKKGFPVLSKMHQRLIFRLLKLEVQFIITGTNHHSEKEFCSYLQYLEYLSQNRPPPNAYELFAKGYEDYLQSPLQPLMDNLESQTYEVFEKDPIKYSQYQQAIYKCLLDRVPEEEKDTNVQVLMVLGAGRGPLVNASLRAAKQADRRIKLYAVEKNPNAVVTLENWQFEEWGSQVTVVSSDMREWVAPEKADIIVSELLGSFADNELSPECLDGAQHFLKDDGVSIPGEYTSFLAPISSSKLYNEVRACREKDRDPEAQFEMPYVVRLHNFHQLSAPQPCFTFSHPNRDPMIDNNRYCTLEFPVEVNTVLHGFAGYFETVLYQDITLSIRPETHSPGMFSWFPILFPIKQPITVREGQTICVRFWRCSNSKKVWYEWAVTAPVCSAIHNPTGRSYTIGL
Sequence (Q9BQA1 whole entry partner): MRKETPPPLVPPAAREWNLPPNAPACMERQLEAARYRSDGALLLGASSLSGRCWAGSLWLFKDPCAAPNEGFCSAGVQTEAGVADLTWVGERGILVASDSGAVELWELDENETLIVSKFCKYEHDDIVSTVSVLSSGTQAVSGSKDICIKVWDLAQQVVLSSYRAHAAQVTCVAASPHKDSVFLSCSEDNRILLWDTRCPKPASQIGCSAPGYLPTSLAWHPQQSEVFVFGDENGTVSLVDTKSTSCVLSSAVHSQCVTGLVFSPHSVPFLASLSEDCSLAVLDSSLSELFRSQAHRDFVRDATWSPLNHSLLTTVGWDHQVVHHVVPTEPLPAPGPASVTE
Assay: PRMT5 biochemical assay (HTRF, biotinylated H4R3 substrate), protocols 1 and 2
Conditions: 1 μM SAM, 50 nM biotinylated H4R3, protocol 1 or 2 not given, read-out: IC50 (activity range), inhibition of PRMT5
Experimental: Inhibitory effect of compounds on PRMT5 was assessed using HTRF detection technology in biochemical assay. Biotinylated H4R3 (residues 1-21) was used as a substrate. […] HTRF signal was recorded in PHERAStar microplate reader. […] Inhibitory effect of compounds on PRMT5 was assessed using HTRF detection technology in biochemical assay. […] HTRF signal was recorded in PHERAStar microplate reader. […]
pIC50: −log10 of the molar value.
List of pIC50 values.

Illustrative cases are given below, each with its answer.
# SMILES STRING, READOUT, RESULT VALUE
records = [
    ("Nc1ncnc2c1ccn2[C@@H]1C=C(CCc2cc(Cl)c(F)c3c2CNCC3)[C@@H](O)[C@H]1O", "pIC50", "9.02 to 9.60"),
    ("Nc1nc2cc(CCC3=C[C@@H](n4ccc5c4ncn4ccnc54)[C@H](O)[C@@H]3O)cc(F)c2cc1Cl", "pIC50", "< 9.02"),
]

Documented pIC50 of `Nc1nc2cc(CCC3=C[C@@H](n4ccc5c4ncn4ccnc54)[C@H](O)[C@@H]3O)ccc2cc1Br` : < 9.02

Documented pIC50 of `Cc1ncnc2c1ccn2[C@@H]1C=C(CCc2cc(C(F)F)c(F)c3c2CNCC3)[C@@H](O)[C@H]1O` : 9.02 to 9.60
